B1: tRNA (parent)
chain: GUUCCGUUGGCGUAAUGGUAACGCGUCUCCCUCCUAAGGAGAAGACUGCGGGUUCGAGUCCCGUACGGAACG

Variants of: B1
protocol-description: yeast fitness relative to wild type (ratio to wild type); higher = fitter; tRNA-Arg(CCU), competitive growth, 37 C, YPD
Variants at the floor of the assay were thinned out.
This listing pairs variants with measured yeast fitness.
outcome-measure: yeast fitness

> print(dat)
                            alteration  qualifier.symbol  numeric.readout
 1                           A14G G56C                 =            0.611
 2                           C31A G50C                 =            0.566
 3                 G12C A20C U32A C33G                 =            0.536
 4                           A21C G68U                 =            0.789
 5                      C33G G52A G56U                 ≤              0.5
 6                 G18U U26A C49U G50C                 ≤              0.5
 7            G23A U26G A40C C46G C60G                 ≤              0.5
 8                  U7A G10C C22U C27G                 =            0.577
 9                       U2C A37U U53A                 =            0.727
10                       C4U C30A C66U                 =             0.82
11                 U13C A20G G39A G48C                 ≤              0.5
12                       C4U C24U A36C                 ≤              0.5
13                  C4A A14G A20U C49A                 =             0.87
14                       U8A C24A U64A                 ≤              0.5
15                 C11U A21U A43C G68C                 ≤              0.5
16                           G18A C30G                 ≤              0.5
17                  C5U A20U C30U G63A                 ≤              0.5
18       G17C G18C A20G C30A G50A A69C                 ≤              0.5
19            A14C C24U A57G C60U G68C                 ≤              0.5
20                            G6A G68A                 =            0.896
21                      C33U A43U C55U                 ≤              0.5
22            U32G U35G A36C C61G A70G                 =            0.583
23                  G9A G10A C31G G52A                 =            0.531
24   U2A A21U C29U A40U U53A C60A A65G                 ≤              0.5
25                       C5A C27U A37U                 ≤              0.5
26                      A14C A37G A57G                 =            0.625
27             C5A C11G C30G A36U C60A                 ≤              0.5
28                           A36U U64A                 =            0.535
29                           G12C C24G                 =            0.622
30            A14G A20C A40C A45G C46A                 ≤              0.5
31                           A43C U54C                 =            0.876
32                 U13G A43C U54A A57G                 ≤              0.5
33                       G6A C11U C27A                 =            0.719
34                           C31A A36C                 =            0.558
35            A20G A40G G50C A65G C66U                 ≤              0.5
36                       U7A G17A U59A                 ≤              0.5
37                           A15U G56A                 =            0.727
38                           A42U A57G                 =            0.905
39                 A43G G58A A65C C66U                 ≤              0.5
40                      A21U G23A C49A                 ≤              0.5
41                       C5G U13G A20U                 ≤              0.5
42                 G23A C49U G63A A65C                 ≤              0.5
43                      G10C C29G A65C                 ≤              0.5
44  A15U U19A A20G A40U A43U C60G C62U                 =            0.518
45                      U19C C24U A70C                 =            0.755
46                      C11G A65C C66G                 ≤              0.5
47   C5A C33A A40C G41A U59A U64A C66G                 =            0.584
48                           A65U G68A                 =            0.729
49                      G12C C27U G50A                 ≤              0.5
50                      G25A U32A U53A                 ≤              0.5
51                 U28C G39C G44C G58A                 ≤              0.5
52                 A20C A37C A43G C62U                 ≤              0.5
53                           A15U C34G                 ≤              0.5
54                           C27A A70C                 =            0.787
55                 G25A U32A U54G G56A                 ≤              0.5
56       C29A A36U A40U C55U G56A U59C                 ≤              0.5
57                  G6A C22G C60A C62U                 ≤              0.5
58                 A14G A15C G51C C61G                 ≤              0.5
59            A20U A21G C29G C49G G63C                 ≤              0.5
60                 C22U U32C G51A C61G                 ≤              0.5
61                           C62U G63A                 =            0.719
62                       C5G U26A C46U                 =             0.96
63                       C5A C11G C61G                 =            0.502
64                            C4G C29U                 =            0.751
65                      A15G A20G G48A                 =            0.738
66                      C11A A42G C61A                 =            0.618
67                 U13G C22G C27A C61U                 ≤              0.5
68                           A57G C61A                 =            0.688
69                      G58U A65G G67A                 ≤              0.5
70                 C22U G44C G48A G51A                 =             0.57
71                 C30A U32G G67A A69C                 ≤              0.5
72                           C49U G50A                 =             0.93
73                      A20G G67A A69U                 =            0.516
74       C11U A15C A21G C24G U28A C61U                 ≤              0.5
75                           G25C C61A                 =             0.75
76                           U35G U59A                 =            0.646
77                      G17C G39A G52A                 ≤              0.5
78                      C11U U26G G67C                 ≤              0.5
79                  C5G C22G G39C A57U                 =            0.723
80                 A15U C46G C61A A70U                 ≤              0.5
81                       U8G C46G G52A                 ≤              0.5
82                           U13G C31A                 =            0.833
83       G18A A21C G39A C55U C60G A69U                 =            0.523
84                      A36C C49U G67C                 =            0.532
85                           C11U C24U                 =            0.852
86        G6C C22G C27G A45U A57G A70G                 ≤              0.5
87                   U2A C4G C55A C61G                 ≤              0.5
88                       U3A A40C U47A                 =            0.647
89                       C5U A42C C60G                 ≤              0.5
90                           A14G A36U                 =            0.658
91              C5A G6C A15G A40G G67A                 ≤              0.5

These entries and their values trace back to the RNAGym collection of RNA variant scans (doi:10.1126/science.aae0568).
